# assayed.target: human C5 protein (human, UniProt P01031 19-673; P01031 678-1676)
# measurement.protocol: cell-based or functional assay
Positions of bridges follow the written chain, without caps; N, C: chain ends. Non-standard residues stand in square brackets, D forms with d. Primed or numbered codes have the meaning given here. mXylyl(3) = bridging moiety between the two residues given in brackets; m‑xylyl = bridging moiety between the two residues given in brackets; Trp(7-aza) = N[C@@H](Cc1c[nH]c2ncccc12)C(=O)O; Phg = N[C@H](C(=O)O)c1ccccc1; Tle = CC(C)(C)[C@H](N)C(=O)O; Lys‑C12 = N-ε-lauryl lysine; NMeS = CN[C@@H](CO)C(=O)O; Nva = CCC[C@H](N)C(=O)O
For each entry below, report its Avg. IC50, human hemolysis assay value.
Give bare numbers, in nM.

Ac-[Nva]C[Phg]T[Trp(7-aza)]EF[NMeS]AC[Nva]-NH2 (linker 2-10 via mXylyl(3)) [R3100] : 626

Below: the item to evaluate.
Please give the measured Avg. IC50, human hemolysis assay for this binder: Ac-CAERFCD[Tle]Y[Trp(7-aza)]EYP[Phg][Lys‑C12]-NH2 (linker 1-6 via m‑xylyl) [R3164]
36

Data credit: patent US20210283212A1
